measuredOn: T1, human Trop-2-His protein (human, UniProt P09758 27-274)
T1 construct: extracellular domain; Assay paragraphs say only 'Trop-2-His'; also called hTrop-2; Kactus Cat #TRP-HM121; not shown: His tag
T1 sequence (looked up): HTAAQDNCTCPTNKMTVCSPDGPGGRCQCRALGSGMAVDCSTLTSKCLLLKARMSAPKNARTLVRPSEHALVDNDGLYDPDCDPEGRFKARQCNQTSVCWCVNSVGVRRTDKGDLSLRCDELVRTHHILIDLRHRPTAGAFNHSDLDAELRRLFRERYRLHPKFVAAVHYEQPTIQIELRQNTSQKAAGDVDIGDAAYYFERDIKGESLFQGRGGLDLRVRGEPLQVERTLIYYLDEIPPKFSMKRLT
protocol: BLI (Gator Prime), LEM supernatant Ab on HFC probe
Answer each item with its documented pKd.
Keep in mind that pKd stands for -log10 of concentration in molar terms.

Would you mind telling me what pKd value was observed for 10D3 (antibody, V domains shown, Rabbit-derived clone; LEM construct: VH + rabbit IgG CH1 + human IgG1 CH2-CH3) VH: QSLEESGGDLVQPGASLTLTCKAAGFDLNNYSMLWVRQAPGKGLEWIGCIYISGGTTYYASWAKGRFTISKTSSTTVTLQMTSLTAADTATYFCARDDGSTSYYLNLWGPGTLVTVSS VL: YDMTQTPASVSEPVGGTVTIKCQASEDIYRLLAWYQQKPGQPPKLLIYDASDLASGVPSRFKGSGSGTEYTLTISGLQCADAATYYCQQGYTIGNIDNSFGGGTEVVVK ?
9.25

Likewise for 70E2 (antibody, V domains shown, Rabbit-derived clone; LEM construct: VH + rabbit IgG CH1 + human IgG1 CH2-CH3) VH: QSLEESGGGLVKPGGTLTLTCTVSGFDFSNYAMTWVRQAPGKGLEYIGFIGIRGNIYYANWAKGRFTISKTSSTTVTLQMTSLTVADTATYFCARGGLWTGNSYFDLWGPGTLVTVSS VL: YDMTQTPASVEVPVGGTVTINCQASENINRYLAWYQQKPGQPPKPLIYRAATLASGVPSRFKGSGSGTEYTLSISDLECADAATYYCQQGYGYSTVGNAFGGGTEVVVK ?
9.06

Likewise for 3A4 (antibody, V domains shown, Rabbit-derived clone; LEM construct: VH + rabbit IgG CH1 + human IgG1 CH2-CH3) VH: QEQLVESGGGLVQPGGSLTLSCKGSGFDFNEYGVSWVRQAPGKGLEWIAYIYPAFHNTYYATWVNGRFTISSHNAQNTLYLQLHTLTAADTATYFCARDAGTTDYNFNLWGPGTLVTVSS VL: DVVMTQTPASVSAAVGGTVSINCQASEDIENYLAWYQQKPGQPPKLLIYEASKLASGVSSRFSGSGYGTEFTLTISGVECADAATYYCQQALTIGNVDNPFGGGSEVVVK ?
8.86

Source of measurements: patent US20250206841A1
